This collection of values is drawn from patent US20130165428A1.

Where a name gives a salt, the structure may show the parent alone.
ATTRIBUTE_MEASURED: melting point

QUERY: Give its melting point value. Item: CN[C@H]1CCCC[C@H]1Nc1nc2c(c(=O)n(C)c(=O)n2C)n1CC=C(C)C (relative stereo) [Example 1(77)]
RESULT: 172.5 to 175 °C

QUERY: Give its melting point value. Item: C#CCCn1c(=O)c2c(nc(N3CCCC(N)C3)n2CC=C(C)C)n(C)c1=O (centres unmarked) [Example 1(65)]
RESULT: 150 to 152 °C

QUERY: Give its melting point value. Item: CC(C)=CCn1c(N2CCCC(N)C2)nc2c1c(=O)n(CCc1ccccc1)c(=O)n2CC(=O)O (centres unmarked) [Example 6(5)]
RESULT: 228 to 235 °C

QUERY: Give its melting point value. Item: COc1cccc(CCn2c(=O)c3c(nc(N4CCCC(N)C4)n3CC=C(C)C)n(C)c2=O)c1 (centres unmarked) [Example 1(86)]
RESULT: 118.5 to 119.5 °C

QUERY: Give its melting point value. Item: CC(C)=CCn1c(N2CCCC(N)C2)nc2c1c(=O)n(C)c(=O)n2CCC#N (centres unmarked) [Example 2(62)]
RESULT: 146 to 149 °C

QUERY: Give its melting point value. Item: Cn1c(=O)c2c(nc(N3CCCC(N)C3)n2C)n(C)c1=O (centres unmarked) [Example 1(115)]
RESULT: 147 °C

QUERY: Give its melting point value. Item: CC(C)=CCn1c(N2CCCC(N)C2)nc2c1c(=O)n(CCc1ccc(C)cc1)c(=O)n2C (centres unmarked) [Example 1(100)]
RESULT: 129 to 130.2 °C

QUERY: Give its melting point value. Item: CCOC(=O)c1ccc(CCn2c(=O)c3c(nc(N4CCC[C@H](N)C4)n3CC=C(C)C)n(C)c2=O)cc1 [Example 2(21)]
RESULT: 142 to 144 °C

QUERY: Give its melting point value. Item: CC(C)=CCn1c(N(C)CC(N)C(=O)N2CCCC2)nc2c1c(=O)n(C)c(=O)n2C (centres unmarked) [Example 2(142)]
RESULT: 138 °C

QUERY: Give its melting point value. Item: CC(C)=CCn1c(N2CCC[C@H](N)C2)nc2c1c(=O)n(CCC(=O)O)c(=O)n2C [Example 6(4)]
RESULT: 226 to 228 °C

QUERY: Give its melting point value. Item: CC(C)=CCn1c(N2CCCC(N)C2)nc2c1c(=O)n(CCc1cccc(Br)c1)c(=O)n2C (centres unmarked) [Example 1(87)]
RESULT: 116.5 to 117.5 °C

QUERY: Give its melting point value. Item: CC(C)=CCn1c(NCC(C)(C)N)nc2c1c(=O)n(C)c(=O)n2C [Example 1(134)]
RESULT: 140.5 to 143 °C

QUERY: Give its melting point value. Item: COC(=O)Cn1c(=O)c2c(nc(N3CCC[C@H](N)C3)n2CC=C(C)C)n(C)c1=O [Example 2(19)]
RESULT: 102 to 105 °C

QUERY: Give its melting point value. Item: C=CCCn1c(=O)c2c(nc(N3CCCC(N)C3)n2CC=C(C)C)n(C)c1=O (centres unmarked) [Example 1(66)]
RESULT: 111 to 112.6 °C

QUERY: Give its melting point value. Item: CC(C)=CCn1c(N2CCCC(N)(C(=O)N3CCCC3)C2)nc2c1c(=O)n(C)c(=O)n2C (centres unmarked) (as salt: sodium) [Example 1(139)]
RESULT: 159 to 160 °C

QUERY: Give its melting point value. Item: CC(C)=CCn1c(N2CCCC(N)C2)nc2c1c(=O)n(CCc1cccc(F)c1)c(=O)n2C (centres unmarked) [Example 1(98)]
RESULT: 126.8 to 127.5 °C

QUERY: Give its melting point value. Item: CC(C)=CCn1c(N2CCCC(N)C2)nc2c1c(=O)n(CCc1c(C)cc(C)cc1C)c(=O)n2C (centres unmarked) [Example 1(36)]
RESULT: 153 to 154.5 °C

QUERY: Give its melting point value. Item: CC(C)=CCn1c(N2CCC[C@H](N)C2)nc2c1c(=O)n(CCc1cccc(O)c1)c(=O)n2C [2(22)]
RESULT: 168 to 170 °C

QUERY: Give its melting point value. Item: CC(C)=CCn1c(N2CCCC(N)C2)nc2c1c(=O)n(CCc1cc(F)cc(F)c1)c(=O)n2C (centres unmarked) [Example 2(36)]
RESULT: 162 to 163.5 °C

QUERY: Give its melting point value. Item: CC(C)=CCn1c(N2CCCC(N)C2)nc2c1c(=O)n(CCc1ccc(Cl)cc1Cl)c(=O)n2C (centres unmarked) [Example 1(37)]
RESULT: 130 to 132 °C

QUERY: Give its melting point value. Item: CC(C)=CCn1c(NC[C@@H](C)N)nc2c1c(=O)n(C)c(=O)n2C [Example 1(135)]
RESULT: 141 to 144 °C

QUERY: Give its melting point value. Item: CC(C)=CCn1c(N2CCCC(N)C2)nc2c1c(=O)n(CCc1cccc([N+](=O)[O-])c1)c(=O)n2C (centres unmarked) [Example 1(99)]
RESULT: 120.8 to 122 °C

QUERY: Give its melting point value. Item: Cn1c(=O)c2c(nc(N3CCCC(N)C3)n2Cc2ccccc2)n(CC(=O)O)c1=O (centres unmarked) [Example 6]
RESULT: 212 to 215 °C

QUERY: Give its melting point value. Item: Cn1c(=O)c2c(nc(N3CCC(N)C3)n2Cc2ccccc2)n(C)c1=O (centres unmarked) [Example 1]
RESULT: 150 °C

QUERY: Give its melting point value. Item: CC(C)=CCn1c(N2CCC(N)C2)nc2c1c(=O)n(C)c(=O)n2C (centres unmarked) [Example 1(1)]
RESULT: 119 °C

QUERY: Give its melting point value. Item: CC(C)=CCn1c(N2CCC[C@H]2CN)nc2c1c(=O)n(C)c(=O)n2C [Example 1(76)]
RESULT: 112 to 115 °C

QUERY: Give its melting point value. Item: CC(C)=CCn1c(N2CCCC(N)C2)nc2c1c(=O)n(CCc1ccccn1)c(=O)n2C (centres unmarked) [1(60)]
RESULT: 117 to 120 °C

QUERY: Give its melting point value. Item: CC(C)=CCn1c(N2CCCC(N)C2)nc2c1c(=O)n(CCn1cccc1)c(=O)n2C (centres unmarked) [Example 1(61)]
RESULT: 136 to 138.6 °C

QUERY: Give its melting point value. Item: CC(C)=CCn1c(N2CCCC(N)C2)nc2c1c(=O)n(C)c(=O)n2C(C)C (centres unmarked) [Example 2(60)]
RESULT: 115 to 117 °C
